target: human GPR119 (Homo sapiens (Human)); assay: AlphaScreen cAMP assay in Min-6/hGPR119 cells (GPR119 activation, intracellular cAMP); settings: MIN6 cells stably transfected with human GPR119; 45 minutes' incubation at RT; AlphaScreen cAMP Assay Kit
Sequence (Q8TDV5 whole entry): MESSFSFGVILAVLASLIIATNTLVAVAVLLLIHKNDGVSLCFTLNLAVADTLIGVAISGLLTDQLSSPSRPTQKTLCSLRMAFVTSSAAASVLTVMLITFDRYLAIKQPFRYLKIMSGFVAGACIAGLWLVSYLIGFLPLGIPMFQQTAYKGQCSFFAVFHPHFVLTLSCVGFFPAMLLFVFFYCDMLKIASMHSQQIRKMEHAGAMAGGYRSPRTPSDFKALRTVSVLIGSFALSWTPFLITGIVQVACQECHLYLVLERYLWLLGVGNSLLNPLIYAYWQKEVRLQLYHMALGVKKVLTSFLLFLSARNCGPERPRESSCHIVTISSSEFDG
ENDPOINT: EC50 (nM)

{"columns": ["COMPOUND", "TARGET SYSTEM", "ENDPOINT", "UNITS TEXT", "RECORDED NUMBER"],
 "data": [
  ["CC1CC(=O)NN=C1c1ccc2nc(-c3ccc(N4CCOCC4)nc3Cl)oc2c1 (stereo not shown) [Example 121]", "human GPR119 (Homo sapiens (Human))", "EC50", "nM", 379]
]}

[P] CC[C@H]1CC(=O)NN=C1c1ccc2nc(-c3ccc(OC4CCOCC4)cc3)oc2c1 [Example 194]
[Q] O=C1NN=C([C@H]2CCc3nc(-c4ccccc4)oc3C2)[C@H]2C[C@@H]12 [Example 131]
[R] CC[C@H]1C(c2ccc3nc(-c4ccc(OC(C)C)cc4)oc3c2)=NNC(=O)[C@@H]1C [Example 208]
Prompt: Rank the items in ascending order with respect to EC50. // list labels; follow requested order
Response: R, P, Q
(R: 88 nM, P: 333 nM, Q: 7700 nM)

----------
Biological target: human GPR119 (Homo sapiens (Human))
Assay: AlphaScreen cAMP assay in Min-6/hGPR119 cells (GPR119 activation, intracellular cAMP)
Settings: MIN6 cells stably transfected with human GPR119; 45 minutes' incubation at RT; AlphaScreen cAMP Assay Kit
Description: The compounds of formula I according to the invention are GPR119 agonists. The effect of the compounds on the activation of GPR119 and on the stimulation of intracellular cAMP concentration is determined using the AlphaScreen cAMP Assay Kit (Cat. No. #6760625R) made by PerkinElmer. MIN6 cells [Miyazaki J et al. Endocrinology. 1990 July; 127(1):126-32] were stably transfected with an expression vector for human GPR119 cDNA (Acc. No. NP_848566). […]
pEC50: −log10 of the molar value.
ENDPOINT: pEC50

// worked examples, pEC50 included
{"columns": ["COMPOUND", "pEC50"],
 "data": [
  ["CC1NC(=O)NN=C1c1ccc2nc(-c3ccccc3)oc2c1 (centres unmarked)", 6.27],
  ["CCC1CC(=O)NN=C1c1ccc2nc(-c3ccc(OCCN4CCCC4)cc3)oc2c1 (centres unmarked)", 6.21],
  ["CCCOc1ccc(-c2nc3ccc(C4=NNC(=O)CC4CC)cc3o2)cc1 (centres unmarked)", 6.72]
]}

[P] CCCC1CCN(CCOc2ccc(-c3nc4ccc(C5=NNC(=O)CC5CC)cc4o3)cc2)CC1 (centres unmarked)
[Q] CCC1CC(=O)NN=C1c1ccc2nc(-c3cccc(OCc4cccnc4)c3)oc2c1 (centres unmarked)
Prompt: Which item exceeds the other in pEC50, P or Q ? Give the chosen item's label as your response.
Response: P
(P: 6.74, Q: 6.09)

----------
target: human GPR119 (Homo sapiens (Human)); test: AlphaScreen cAMP assay in Min-6/hGPR119 cells (GPR119 activation, intracellular cAMP); conditions: MIN6 cells stably transfected with human GPR119; 45 minutes' incubation at RT; AlphaScreen cAMP Assay Kit
ENDPOINT: EC50 (nM)

{"columns": ["COMPOUND", "EC50 / nM"],
 "data": [
  ["CCC1CC(=O)NN=C1c1ccc2nc(-c3ccc(OCCN4CCC(C#N)CC4)cc3)oc2c1 (centres unmarked) [Example 163]", 97],
  ["CCC1CC(=O)NN=C1c1ccc2nc(-c3cccc(OC(C)CN4CCCCC4)c3)oc2c1 (centres unmarked) [Example 230]", 1190],
  ["CCC1CC(=O)NN=C1c1ccc2nc(-c3ccc(OCCN4CCC(F)CC4)cc3)oc2c1 (centres unmarked) [Example 248]", 159]
]}

[A] CCC1CC(=O)NN=C1c1ccc2nc(-c3ccc(OCc4cncn4C)cc3)oc2c1 (centres unmarked) [Example 42]
[B] COC(=O)c1ccc(-c2nc3ccc(C4=NNC(=O)CC4C)cc3o2)cc1 (centres unmarked) [Example 90]
[C] CCCN(CCOc1ccc(-c2nc3ccc(C4=NNC(=O)CC4CC)cc3o2)cc1)C(C)C (centres unmarked) [Example 249]
[D] O=C1NN=C([C@@H]2CCc3nc(-c4ccccc4)oc3C2)[C@@H]2C[C@H]12 [Example 134]
[E] Cc1ccc(-c2nc3ccc(C4=NNC(=O)CC4C)cc3o2)s1 (centres unmarked) [Example 87]
Prompt: Rank descending by EC50. // list labels; follow requested order
Response: A, D, B, E, C
(A: 4180 nM, D: 1630 nM, B: 763 nM, E: 100 nM, C: 58 nM)
